Tested on: human red blood cells (RBCs)
Assay name: Haemolysis assay
Type: cell-based
Particulars: purified human erythrocytes; assay as in Etzerodt et al. [14]
Square brackets hold non-standard residues; d marks the D form. Peptide text beside a SMILES is read from it. * marks the point of attachment. ξ: configuration not given here. ξGly(octyl) = CCCCCCCCC(N)C(=O)O; Propionyl = CCC(=O)*
Measured parameter: H5, concentration at which 5% haemolysis has been obtained (µM)

[
  {
    "Compound": "CCCCCCCCC(NC(=O)[C@H](CC(C)C)NC(=O)[C@H](CCCCN)NC(=O)[C@H](CCCCN)NC(=O)[C@H](C)NC(=O)[C@H](CCSC)NC(=O)[C@H](C)NC(=O)[C@H](C)NC(=O)[C@@H](NC(=O)CNC(=O)[C@H](CCCCN)NC(=O)[C@H](Cc1c[nH]c2ccccc12)NC(=O)[C@H](CC(N)=O)NC(=O)[C@@H](N)[C@@H](C)CC)[C@@H](C)CC)C(N)=O (stereo partly shown) [Adec14] (H-INWKGIAAMAKKL[ξGly(octyl)]-NH2)",
    "Reported": 0.8
  },
  {
    "Compound": "CCC(=O)N[C@H](C(=O)N[C@@H](CC(N)=O)C(=O)N[C@@H](Cc1c[nH]c2ccccc12)C(=O)N[C@@H](CCCCN)C(=O)NCC(=O)N[C@H](C(=O)N[C@@H](C)C(=O)N[C@@H](C)C(=O)N[C@@H](CCSC)C(=O)N[C@@H](C)C(=O)N[C@@H](CCCCN)C(=O)N[C@@H](CCCCN)C(=O)N[C@@H](CC(C)C)C(=O)N[C@@H](CC(C)C)C(N)=O)[C@@H](C)CC)[C@@H](C)CC [PAMPX] (Propionyl-INWKGIAAMAKKLL-NH2)",
    "Reported": 25
  },
  {
    "Compound": "CCCCCCCCC(NC(=O)[C@H](C)NC(=O)[C@@H](NC(=O)CNC(=O)[C@H](CCCCN)NC(=O)[C@H](Cc1c[nH]c2ccccc12)NC(=O)[C@H](CC(N)=O)NC(=O)[C@@H](N)[C@@H](C)CC)[C@@H](C)CC)C(=O)N[C@@H](CCSC)C(=O)N[C@@H](C)C(=O)N[C@@H](CCCCN)C(=O)N[C@@H](CCCCN)C(=O)N[C@@H](CC(C)C)C(=O)N[C@@H](CC(C)C)C(N)=O (stereo partly shown) [Adec8] (H-INWKGIA[ξGly(octyl)]MAKKLL-NH2)",
    "Reported": 1
  },
  {
    "Compound": "CCCCCCCCC(N)C(=O)N[C@@H](CC(N)=O)C(=O)N[C@@H](Cc1c[nH]c2ccccc12)C(=O)N[C@@H](CCCCN)C(=O)NCC(=O)N[C@H](C(=O)N[C@@H](C)C(=O)N[C@@H](C)C(=O)N[C@@H](CCSC)C(=O)N[C@@H](C)C(=O)N[C@@H](CCCCN)C(=O)N[C@@H](CCCCN)C(=O)N[C@@H](CC(C)C)C(=O)N[C@@H](CC(C)C)C(N)=O)[C@@H](C)CC (stereo partly shown) [Adec1] (H-[ξGly(octyl)]NWKGIAAMAKKLL-NH2)",
    "Reported": 0.7
  }
]
